System: peripheral blood mononuclear cells from Mtb-immune (PPD skin-test positive) subjects
protocol.notes: Lymphoproliferation assay ([3H]thymidine, stimulation index) with PBMC of Mtb-immune subjects
Type: cell-based, human
recorded.conditions: Philippines cohort; response positive if SI≧2.0
metric: Phil % responders (n = 38) (%)
Report the figure in % without appending any unit label.

Log: peripheral blood mononuclear cells from Mtb-immune (PPD skin-test positive) subjects, sequence LKLGLVEFGGVAKLNAEVMS (listed as Mycobacterium tuberculosis) [14-3, 14 kDa Mtb protein, amino acids 30-49] , Phil % responders (n = 38) = 8

Log: peripheral blood mononuclear cells from Mtb-immune (PPD skin-test positive) subjects, sequence MLGNAPSVVPNTTLGMHC (listed as Mycobacterium tuberculosis) [14-1, 14 kDa Mtb protein, amino acids 1-18] , Phil % responders (n = 38) = 5

Log: peripheral blood mononuclear cells from Mtb-immune (PPD skin-test positive) subjects, sequence CEVWSNVSETISGPRLYGEM (listed as Mycobacterium tuberculosis) [14-5, 14 kDa Mtb protein, amino acids 74-93] , Phil % responders (n = 38) = 5

Log: peripheral blood mononuclear cells from Mtb-immune (PPD skin-test positive) subjects, sequence RSLFPEFSELFAAFPSFAGL (listed as Mycobacterium tuberculosis) [16-1, 16 kDa Mtb protein, amino acids 11-30] , Phil % responders (n = 38) = 10

Log: peripheral blood mononuclear cells from Mtb-immune (PPD skin-test positive) subjects, sequence QAVMLGTGTPNRA (listed as Mycobacterium tuberculosis) [14-4, 14 kDa Mtb protein, amino acids 56-68] , Phil % responders (n = 38) = 8

Log: peripheral blood mononuclear cells from Mtb-immune (PPD skin-test positive) subjects, sequence FSELFAAFPSFAGLRPTFDT [16-2, 16 kDa Mtb protein, amino acids 17-36] , Phil % responders (n = 38) = 10

Log: peripheral blood mononuclear cells from Mtb-immune (PPD skin-test positive) subjects, sequence VSETISGPRLYGEMTMQGTR (listed as Mycobacterium tuberculosis) [14-6, 14 kDa Mtb protein, amino acids 80-99] , Phil % responders (n = 38) = 3

Log: peripheral blood mononuclear cells from Mtb-immune (PPD skin-test positive) subjects, sequence GSFGSAPSNGWLKLGLVEFG (listed as Mycobacterium tuberculosis) [14-2, 14 kDa Mtb protein, amino acids 19-38] , Phil % responders (n = 38) = 15

----------
So I've got a bunch of sequences here, and I need their Prov # responders (n = 22) values.
Tested on: peripheral blood mononuclear cells from Mtb-immune (PPD skin-test positive) subjects
protocol.notes: Lymphoproliferation assay ([3H]thymidine, stimulation index) with PBMC of Mtb-immune subjects
Assay type: cell-based, human
recorded.conditions: Providence cohort; response positive if SI≧2.0; peptide 1 and 10 μg/ml
Answer field: number only, no words.

Prov # responders (n = 22) in this record for LKLGLVEFGGVAKLNAEVMS (listed as Mycobacterium tuberculosis) [14-3, 14 kDa Mtb protein, amino acids 30-49] : 4

Prov # responders (n = 22) in this record for QAVMLGTGTPNRA (listed as Mycobacterium tuberculosis) [14-4, 14 kDa Mtb protein, amino acids 56-68] : 1

Prov # responders (n = 22) in this record for CEVWSNVSETISGPRLYGEM (listed as Mycobacterium tuberculosis) [14-5, 14 kDa Mtb protein, amino acids 74-93] : 2

Prov # responders (n = 22) in this record for FSELFAAFPSFAGLRPTFDT [16-2, 16 kDa Mtb protein, amino acids 17-36] : 1

Prov # responders (n = 22) in this record for MLGNAPSVVPNTTLGMHC (listed as Mycobacterium tuberculosis) [14-1, 14 kDa Mtb protein, amino acids 1-18] : 2

Prov # responders (n = 22) in this record for RSLFPEFSELFAAFPSFAGL (listed as Mycobacterium tuberculosis) [16-1, 16 kDa Mtb protein, amino acids 11-30] : 2

Prov # responders (n = 22) in this record for GSFGSAPSNGWLKLGLVEFG (listed as Mycobacterium tuberculosis) [14-2, 14 kDa Mtb protein, amino acids 19-38] : 3

Prov # responders (n = 22) in this record for VSETISGPRLYGEMTMQGTR (listed as Mycobacterium tuberculosis) [14-6, 14 kDa Mtb protein, amino acids 80-99] : 1
